The entries below come with measured bioavailability values attached.
protocol_notes: Oral bioavailability in Sprague-Dawley rat at 10 mg/kg
Assay type: ADME, organism-based
condition_description: in vivo
Number in %, nothing else.

COCC(=O)N[C@@H](Cc1cccc(-c2nccs2)c1)[C@H](O)CN[C@H]1CC2(CCC2)Oc2ncc(CC(C)(C)C)cc21 : 120

# input compound: `C#Cc1cccc(C[C@H](NC(=O)COC)[C@H](O)CN[C@H]2CC3(CCC3)Oc3ncc(CC(C)(C)C)cc32)c1` ; wanted: its bioavailability
# output 100

* * *

The entries below come with measured Cmax values attached.
protocol_notes: Cmax in Sprague-Dawley rat at 10 mg/kg, po
Assay type: ADME, organism-based
Parameters: dose 10 mg/kg, route oral
condition_description: in vivo
Your reply should be a number followed by the unit it is expressed in.

COCC(=O)N[C@@H](Cc1cccc(-c2nccs2)c1)[C@H](O)CN[C@H]1CC2(CCC2)Oc2ncc(CC(C)(C)C)cc21 : 1890 ng/mL

Kindly consider the entry below.
# input Tell me the measured Cmax of `C#Cc1cccc(C[C@H](NC(=O)COC)[C@H](O)CN[C@H]2CC3(CCC3)Oc3ncc(CC(C)(C)C)cc32)c1` , please.
# output 4860 ng/mL
